The measurements presented in this section are drawn from PubChem BioAssay.

tested on: Chordin-like protein 2 (CHRDL2); experiment: CHRDL2 small-molecule binders, primary screen, biochemical, small-molecule microarray, 635 nm fluorescence (AID 1126); conditions: small-molecule microarray binding, fluorescence 635 nm; higher = more signal;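 further: printed compound slides probed with Chrdl2 protein at 4 µg/mL for 1 h at 4 C; score merges 667 nm emission intensity with signal to noise over three replicate slides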
metric name: composite z-score
When you answer, write just the number.

1) CC(C)[Si]1(C(C)C)O[C@@H](c2ccccc2)c2cc(C3CC3)nc(-c3ccccc3)c21 0.324

Form field - read-out: composite z-score; system: Chordin-like protein 2 (CHRDL2); submitted item: "O=C1[C@H]2[C@H]3[C@H](O)[C@H](O)CC(=NOC[C@@H](O)COCc4ccco4)[C@H]3CC[C@H]2C(=O)N1Cc1ccc2c(c1)OCO2"
1.49

Form field - read-out: composite z-score; system: Chordin-like protein 2 (CHRDL2); submitted item: "C#CCCCON=C1C[C@@H](O)[C@@H](O)[C@@H]2[C@@H]3C(=O)N([C@@H](C)c4ccccc4)C(=O)[C@@H]3CC[C@H]12"
0.523

Form field - read-out: composite z-score; system: Chordin-like protein 2 (CHRDL2); submitted item: "C[C@@H]1CC[C@H]2C(=O)O[C@H](COc3ccc(C(C)(C)C)cc3)CN2[C@H]1c1ccc(Br)cc1"
0.0828

---

test: E. coli acrAB mutant growth effects, primary screen, E. coli filamentation inducers, strain DRC39, OD650, 48 h (AID 1179);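 further: screen aims at cell division blockers that make cells filament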; details: E. coli DRC39 delta-acrAB growth, higher = more signal, called active from +8 up or from −8 down
Activity calls are given as the source filed them.
metric name: z-score

Use these answered entries as a reference point.
1) O=C1O[C@@H](c2ccccc2)[C@@H](c2ccccc2)N2[C@@H](c3ccc(OCCO)cc3)[C@]3(C(=O)Nc4ccc(C#CCCO)cc43)[C@@H](C(=O)N3CCCCCCC3)[C@H]12 0.543 (inactive)
2) C=CCN1C(=O)[C@]2(O[C@H](CCn3cc(CCO)nn3)[C@@H]([Si](C)(C)c3ccc(OC)cc3)[C@@H]2C)c2cc(N3CCOC3=O)ccc21 -1.18 (inactive)
3) CO[C@@H]1COC(=O)CC=C[C@@H](C)[C@@H]2C=C[C@H](O)[C@@H](COC(=O)CCC[C@H]1C)O2 -0.195 (inactive)

Alright, here's another compound for you.
Requested read-out: z-score. Entry: "CC(=O)OC[C@H]1O[C@H](CCON=C(C)CCN2CCc3nc(-c4ccccc4)c(-c4ccccc4)cc3C2)C=C[C@@H]1OC(C)=O"
-0.545 (inactive)

---

test system: Fibrinogen (Alexa647-labelled); experiment: fibrinogen binders on compound microarrays, profiling panel, artefact control for SMM control-protein annotation, biochemical, small-molecule microarray, 635/667 nm fluorescence (AID 1131); conditions: fibrinogen-A647 binding fluorescence, higher = more signal;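 further: z-score merges 667 nm fluorescence with per-spot signal-to-noise over triplicate slides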
In this section, each of the compounds is paired with its reported composite z-score.

Use these answered entries as a reference point.
compound	composite z-score
C=C(/C(=C/C[C@H](OC(C)=O)c1ccc(OCCO)cc1)c1cnc2ccccc2c1)C(C)C	0.921
C=CC[C@@H]1C=C[C@H](ON=C2c3cc(OC)ccc3O[C@H](c3cccc(OC)c3)[C@H]2O)[C@@H](CO)O1	0.352
CC(=O)OC[C@H]1O[C@H](CCON=C[C@@H](C)[C@H](OCc2ccccc2)C(C)C)C=C[C@@H]1OC(C)=O	0.797
CC(C)OC(=O)C=C1C[C@@H](c2ccc(C#N)cc2)O[C@@H](c2ccc(C#N)cc2)O1	0.978
COC(=O)[C@H]1COC(c2ccc(OCCCO)cc2)=N1	-4.27
CC(CCN1CCCCc2nc(C)c(C)cc21)=NOC(C)CN1CCCCc2nc(C)c(C)cc21 (configuration not stated)	0.911
O=C1[C@H]2[C@H]3[C@H](O)[C@H](O)CC(=NOC[C@@H](O)COCc4ccco4)[C@H]3CC[C@H]2C(=O)N1Cc1ccc2c(c1)OCO2	-0.447
CCCCc1nc2c(c3c1C[C@H](C)OC3)CN(CCC(C)C)CC2	0.928

Requested read-out: composite z-score. Entry: "CC(C)[Si]1(C(C)C)O[C@@H](c2ccccc2)c2cc(C3CC3)nc(-c3ccccc3)c21"
0.412

Requested read-out: composite z-score. Entry: CC(C)c1ccc(NN2C(C(O)c3ccc4c(c3)OCO4)C=CC3C(=O)N(c4ccccc4)C(=O)C32)cc1 (configuration not stated)
1.04

Requested read-out: composite z-score. Entry: "CC(C)NC(=O)[C@@]1(C)c2ccccc2C(=O)N(Cc2cc(F)cc(C(F)(F)F)c2)[C@H]1c1ccc(CO)cc1"
0.335

Requested read-out: composite z-score. Entry: "CO[C@@H]1COC(=O)CC=C[C@@H](C)[C@@H]2C=C[C@H](O)[C@@H](COC(=O)CCC[C@H]1C)O2"
-0.478

Requested read-out: composite z-score. Entry: "O=C1[C@H]2[C@H]3[C@H](O)[C@H](O)CC(=NOCc4ccccc4)[C@H]3CC[C@H]2C(=O)N1c1ccc(F)cc1F"
-0.898

Requested read-out: composite z-score. Entry: "CCCC=C(CCC)[C@@H](NC(=O)c1ccc(-c2ccccc2)cc1)c1ccc(C(=O)OC)cc1"
0.967

---

test: small-molecule binders of probe aNOTCH3, primary screen, biochemical, small-molecule microarray, 635/667 nm fluorescence (AID 1120); conditions: higher = more signal;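 further: probe is a biotin-tagged antibody raised against NOTCH3 rather than NOTCH3 protein; score merges spot fluorescence near 667 nm with spot signal to noise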
Please mark True if the recorded composite z-score is equal to or greater than 0.004, and False if it falls below.

Please review the entries below; each comes with its answer.
compound	category label
CC(CCN1CCCCc2nc(C)c(C)cc21)=NOC(C)CN1CCCc2nc(C)c(C)cc21 (stereo not drawn)	True
C[C@H]1Cc2c(-c3ccccc3)nc3c(c2CO1)CN(CCOc1ccccc1)CC3	True
CN1C(=O)C2C=CC(C(O)c3ccc(Br)cc3)N(N(c3ccccc3)c3ccccc3)C2C1=O (stereo not drawn)	False
CCCNC(=O)[C@@H]1c2ccccc2C(=O)N(c2ccc(C)cn2)[C@H]1c1ccc(CO)cc1	False
CS(=O)(=O)CCOC(=O)C1=CC(CCCO)=CC(c2cccs2)N(Cc2cccc(OC(F)(F)F)c2)C=C1C(=O)OCCS(C)(=O)=O (stereo not drawn)	True
CC(C)(C)N1C(=O)[C@H]2[C@H]3[C@H](O)[C@H](O)CC(=NO[C@@H]4O[C@H](CO)[C@@H](O)[C@H](O)[C@H]4O)[C@@H]3CC[C@H]2C1=O	False

Now consider the entry below.
Check this compound for composite z-score at or above 0.004: "C[C@@H]1C=CCC(=O)OC[C@H](C)C(=O)N[C@@H](C)C(=O)OC1"
False

---

In this section, each of the compounds is paired with its reported z-score.
assay: HepG2 cell viability effects, profiling panel, calcein-AM fluorescence, 48 h, basal (AID 1164); settings: higher = more signal; further: test concentration not given here

Use these answered entries as a reference point.
compound	result
O=C(CS)NCCCCCNC(=O)[C@@H]1C[C@@H]2C(=O)N[C@@H](Cc3ccccc3)C(=O)N2[C@@H]1c1ccc(O)cc1	1.15
C=CC[C@]1(C(=O)NCc2ccccc2)N=C(c2ccc(OCCCO)cc2)O[C@H]1c1ccccc1	-1.98
C=C(CCCC)C(=O)CC[C@@H](OC(C)=O)c1cccc(OCCO)c1	-2.45
COCCCNC(=O)[C@@]1(Sc2ccc(C)cc2)CC(=O)N(Cc2ccccc2)[C@@H]1c1ccc(CO)cc1I	0.264
CCN1C(=O)[C@H]2[C@H]3[C@H](O)[C@H](O)CC(=NOC(C)CN4CCCCc5nc(C)c(C)cc54)[C@@H]3CC[C@H]2C1=O (stereo not given in full)	0.503
O=C1[C@H]2[C@H]3[C@H](O)[C@H](O)CC(=NOCc4ccccc4)[C@H]3CC[C@H]2C(=O)N1c1ccc(F)cc1F	-0.196
COc1ccc([Si](C)(C)[C@@H]2[C@@H](CC(=O)N3CCC[C@H]3CO)O[C@]3(C(=O)N(Cc4cccc(N5CCC5=O)c4)c4ccccc43)[C@H]2C)cc1	-4.16
COC(=O)[C@@]1(Cc2ccc(F)cc2)[C@@H]2C(=CC(=O)[C@H]2CC(=O)C(=O)N(C)C)CN1C(=O)c1ccccc1	0.201
C[N+](C)(C)CCCCCCNC(=O)[C@@H]1C[C@@H]2C(=O)N3CCC[C@H]3C(=O)N2[C@@H]1c1cccc(OCCO)c1	-1.92
Cn1c(=O)n2n(c1=O)[C@H]1[C@H](O)[C@@H]3O[C@@H]3C(=NOC[C@@H](O)COCc3ccco3)[C@H]1CC2	1.41

Requested read-out: z-score. Entry: "NC(=O)NCC#Cc1ccc2c(c1)[C@]1(C(=O)N2)[C@H](c2ccc(O)cc2)N2[C@H](c3ccccc3)[C@H](c3ccccc3)OC(=O)[C@H]2[C@@H]1C(=O)N1CCCCCCC1"
1.23

Requested read-out: z-score. Entry: "CC(CCN1CCc2nc(-c3ccccc3)c(-c3ccccc3)cc2C1)=NO[C@@H](C)c1cn([C@H](CO)Cc2ccccc2)nn1"
1.4

Requested read-out: z-score. Entry: "COCC1=C2[C@@H](CCc3ccccc3)OB(O)C[C@@H]2n2c(=O)n(-c3ccccc3)c(=O)n2C1"
0.602

Requested read-out: z-score. Entry: CC(CCN1CCCCc2nc(C)c(C)cc21)=NOC(C)CN1CCCCc2nc(C)c(C)cc21 (stereo not given)
-1.12

Requested read-out: z-score. Entry: CCOC(=O)[C@H](CC(C)C)NC(=O)CCC1CC(OC(=O)NCCc2ccc(F)cc2)CC2(CCCC(COC(=O)NCc3ccccc3)O2)O1 (stereo not given in full)
-3.35
